Tested on: Laminin 421/521
PROTOCOL SUMMARY: Phage display library screening (Example 2), NEB laminin-binding peptides
Design: species or system human
SETTINGS: Laminin 421/521, not 211 and 411; combined unique sequence count, Python/R script analysis
Labels assigned by Count range: bottom end: < 50; midrange: ≥ 50 and < 60; top end: ≥ 60

SUBSTANCE	QUALITATIVE LABEL
AVVSQNQMSQQK (Laminin 421/521-binding peptide)	top end
VPQIRIK (Laminin 421/521-binding peptide)	bottom end
WGLKLPH (Laminin 421/521-binding peptide)	top end
CSLANPATC (Laminin 421/521-binding peptide)	midrange
ALPWQSGVHGTK (Laminin 421/521-binding peptide)	bottom end
WPVRNLL (Laminin 421/521-binding peptide)	top end
KPILWNRSLNAL (Laminin 421/521-binding peptide)	midrange
CHNADNNGC (Laminin 421/521-binding peptide)	bottom end
EYWHQRGSWFHR (Laminin 421/521-binding peptide)	midrange
STNVQRA (Laminin 421/521-binding peptide)	bottom end
